- Test system: corn earworm (CEW; Helicoverpa zea: Lepidoptera)
- test description: Insecticidal test for corn earworm, 128-well diet tray assay
- Format: in vivo
experimental endpoint: % Mortality CEW 50 μg/cm^2

Data request: Look up corn earworm (CEW; Helicoverpa zea: Lepidoptera) data: % Mortality CEW 50 μg/cm^2 of CC(OC(=O)Nc1ccc(-c2ncn(-c3ccc(OC(F)(F)F)cc3)n2)cc1)c1c(Cl)cccc1Cl (stereo not drawn) [Compound 73] , then report it.
Data returned: A (50-100)

Data request: Look up corn earworm (CEW; Helicoverpa zea: Lepidoptera) data: % Mortality CEW 50 μg/cm^2 of COc1ccc(CC(C)(C)OC(=O)Nc2ccc(-c3ncn(-c4ccc(OC(F)(F)F)cc4)n3)cc2)cc1 [Compound 100] , then report it.
Data returned: B (Less than 50)

Data request: Look up corn earworm (CEW; Helicoverpa zea: Lepidoptera) data: % Mortality CEW 50 μg/cm^2 of CC(OC(=O)Nc1ccc(-c2ncn(-c3ccc(OC(F)(F)F)cc3)n2)cc1)c1ccncc1 (stereo not drawn) [Compound 48] , then report it.
Data returned: A (50-100)

Data request: Look up corn earworm (CEW; Helicoverpa zea: Lepidoptera) data: % Mortality CEW 50 μg/cm^2 of C=CC(C)(C)OC(=O)Nc1ccc(-c2ncn(-c3ccc(OC(F)(F)F)cc3)n2)cc1 [Compound 19] , then report it.
Data returned: A (50-100)

Data request: Look up corn earworm (CEW; Helicoverpa zea: Lepidoptera) data: % Mortality CEW 50 μg/cm^2 of COc1ccc(C(C)OC(=O)Nc2ccc(-c3ncn(-c4ccc(OC(F)(F)F)cc4)n3)cc2)nc1 (stereo not drawn) [Compound 119] , then report it.
Data returned: A (50-100)

Next:
Data request: Look up corn earworm (CEW; Helicoverpa zea: Lepidoptera) data: % Mortality CEW 50 μg/cm^2 of CC(OC(=O)Nc1ccc(-c2ncn(-c3ccc(OC(F)(F)F)cc3)n2)cc1)c1cccc(C(F)(F)F)c1 (stereo not drawn) [Compound 68] , then report it.
Data returned: A (50-100)

Data request: Look up corn earworm (CEW; Helicoverpa zea: Lepidoptera) data: % Mortality CEW 50 μg/cm^2 of CC(OC(=O)Nc1ccc(-c2ncn(-c3ccc(OC(F)(F)F)cc3)n2)cc1)c1cccnc1 (stereo not drawn) [Compound 110] , then report it.
Data returned: A (50-100)

Data request: Look up corn earworm (CEW; Helicoverpa zea: Lepidoptera) data: % Mortality CEW 50 μg/cm^2 of CC(OC(=O)Nc1ccc(-c2ncn(-c3ccc(OC(F)(F)F)cc3)n2)cc1)c1c(F)c(F)c(F)c(F)c1F (stereo not drawn) [Compound 114] , then report it.
Data returned: B (Less than 50)

Data request: Look up corn earworm (CEW; Helicoverpa zea: Lepidoptera) data: % Mortality CEW 50 μg/cm^2 of O=C(Nc1ccc(-c2ncn(-c3ccc(OC(F)(F)F)cc3)n2)cc1)OCc1c(Cl)cccc1Cl [Compound 111] , then report it.
Data returned: A (50-100)

Data request: Look up corn earworm (CEW; Helicoverpa zea: Lepidoptera) data: % Mortality CEW 50 μg/cm^2 of O=C(Nc1ccc(-c2ncn(-c3ccc(OC(F)(F)F)cc3)n2)cc1)OC(c1ccccc1)c1ccccc1 [Compound 83] , then report it.
Data returned: A (50-100)

Data request: Look up corn earworm (CEW; Helicoverpa zea: Lepidoptera) data: % Mortality CEW 50 μg/cm^2 of CC(OC(=O)Nc1ccc(-c2ncn(-c3ccc(OC(F)(F)F)cc3)n2)cc1)c1ccc(C(F)(F)F)cc1 (stereo not drawn) [Compound 42] , then report it.
Data returned: A (50-100)

Data request: Look up corn earworm (CEW; Helicoverpa zea: Lepidoptera) data: % Mortality CEW 50 μg/cm^2 of CC(OC(=O)Nc1ccc(-c2ncn(-c3ccc(OC(F)(F)F)cc3)n2)cc1)C1CCCCC1 (stereo not drawn) [Compound 16] , then report it.
Data returned: B (Less than 50)

Data request: Look up corn earworm (CEW; Helicoverpa zea: Lepidoptera) data: % Mortality CEW 50 μg/cm^2 of CC(C)OC(=O)Nc1ccc(-c2ncn(-c3ccc(OC(F)(F)C(F)(F)F)cc3)n2)cc1 [Compound 10] , then report it.
Data returned: B (Less than 50)

Data request: Look up corn earworm (CEW; Helicoverpa zea: Lepidoptera) data: % Mortality CEW 50 μg/cm^2 of O=C(Nc1ccc(-c2ncn(-c3ccc(OC(F)(F)F)cc3)n2)cc1)Oc1cccc(-c2ccccc2)c1 [Compound 129] , then report it.
Data returned: A (50-100)

Data request: Look up corn earworm (CEW; Helicoverpa zea: Lepidoptera) data: % Mortality CEW 50 μg/cm^2 of CCC(OC(=O)Nc1ccc(-c2ncn(-c3ccc(OC(F)(F)F)cc3)n2)cc1)c1cccc(Cl)c1 (stereo not drawn) [Compound 65] , then report it.
Data returned: A (50-100)

====

- Test system: beet armyworm (BAW; Spodoptera exigua: Lepidoptera)
- test description: Insecticidal test for beet armyworm, 128-well diet tray assay
- Assay type: in vivo
experimental endpoint: % Mortality BAW 50 μg/cm^2

Answered examples (4):
Data request: Read off the recorded % Mortality BAW 50 μg/cm^2 for Cc1noc(C)c1C(C)OC(=O)Nc1ccc(-c2ncn(-c3ccc(OC(F)(F)F)cc3)n2)cc1 (stereo not shown)
Data returned: A (50-100)

Data request: Read off the recorded % Mortality BAW 50 μg/cm^2 for CC(OC(=O)Nc1ccc(-c2ncn(-c3ccc(OC(F)(F)F)cc3)n2)cc1)C1CC1 (stereo not shown)
Data returned: A (50-100)

Data request: Read off the recorded % Mortality BAW 50 μg/cm^2 for CCCCCCC(C)OC(=O)Nc1ccc(-c2ncn(-c3ccc(OC(F)(F)F)cc3)n2)cc1 (stereo not shown)
Data returned: B (Less than 50)

Data request: Read off the recorded % Mortality BAW 50 μg/cm^2 for CCC(OC(=O)Nc1ccc(-c2ncn(-c3ccc(OC(F)(F)F)cc3)n2)cc1)c1ccccc1 (stereo not shown)
Data returned: A (50-100)

Could you now look at the following compound, please?
Data request: Read off the recorded % Mortality BAW 50 μg/cm^2 for C#CC(OC(=O)Nc1ccc(-c2ncn(-c3ccc(OC(F)(F)F)cc3)n2)cc1)c1ccccc1 (stereo not shown)
Data returned: A (50-100)

====

- System: beet armyworm (BAW; Spodoptera exigua: Lepidoptera)
- test description: Insecticidal test for beet armyworm, 128-well diet tray assay
- Format: in vivo
experimental endpoint: % Mortality BAW 50 μg/cm^2

Data request: Read off the recorded % Mortality BAW 50 μg/cm^2 for COCC(C)(C)OC(=O)Nc1ccc(-c2ncn(-c3ccc(OC(F)(F)F)cc3)n2)cc1
Data returned: A (50-100)

Data request: Read off the recorded % Mortality BAW 50 μg/cm^2 for CC(OC(=O)Nc1ccc(-c2ncn(-c3ccc(OC(F)(F)F)cc3)n2)cc1)c1cccc(C(F)(F)F)c1 (stereo not shown)
Data returned: A (50-100)

Data request: Read off the recorded % Mortality BAW 50 μg/cm^2 for CCCCC(C)OC(=O)Nc1ccc(-c2ncn(-c3ccc(OC(F)(F)F)cc3)n2)cc1 (stereo not shown)
Data returned: A (50-100)

Data request: Read off the recorded % Mortality BAW 50 μg/cm^2 for COC(=O)Nc1ccc(-c2ncn(-c3ccc(OC(F)(F)C(F)(F)F)cc3)n2)cc1
Data returned: A (50-100)

====

- Test system: beet armyworm (BAW; Spodoptera exigua: Lepidoptera)
- test description: Insecticidal test for beet armyworm, 128-well diet tray assay
- Type: in vivo
experimental endpoint: % Mortality BAW 50 μg/cm^2

Answered examples (5):
Data request: Read off the recorded % Mortality BAW 50 μg/cm^2 for Cc1ccc(C(C)OC(=O)Nc2ccc(-c3ncn(-c4ccc(OC(F)(F)F)cc4)n3)cc2)cn1 (stereo not drawn)
Data returned: A (50-100)

Data request: Read off the recorded % Mortality BAW 50 μg/cm^2 for CCOc1cnc(C(C)(C)OC(=O)Nc2ccc(-c3ncn(-c4ccc(OC(F)(F)F)cc4)n3)cc2)nc1
Data returned: A (50-100)

Data request: Read off the recorded % Mortality BAW 50 μg/cm^2 for O=C(Nc1ccc(-c2ncn(-c3ccc(OC(F)(F)F)cc3)n2)cc1)OC(c1ccccc1)C1CC1 (stereo not drawn)
Data returned: A (50-100)

Data request: Read off the recorded % Mortality BAW 50 μg/cm^2 for CC(OC(=O)Nc1ccc(-c2ncn(-c3ccc(C(F)(F)F)cc3)n2)cc1)c1ccc(C(F)(F)F)cc1 (stereo not drawn)
Data returned: A (50-100)

Data request: Read off the recorded % Mortality BAW 50 μg/cm^2 for C=CC(OC(=O)Nc1ccc(-c2ncn(-c3ccc(OC(F)(F)F)cc3)n2)cc1)c1ccccc1 (stereo not drawn)
Data returned: A (50-100)

Next:
Data request: Read off the recorded % Mortality BAW 50 μg/cm^2 for CC(OC(=O)Nc1ccc(-c2ncn(-c3ccc(OC(F)(F)F)cc3)n2)cc1)c1ccc(Br)cc1 (stereo not drawn)
Data returned: A (50-100)

Data request: Read off the recorded % Mortality BAW 50 μg/cm^2 for CCCC(OC(=O)Nc1ccc(-c2ncn(-c3ccc(OC(F)(F)F)cc3)n2)cc1)c1ccccc1 (stereo not drawn)
Data returned: A (50-100)

Data request: Read off the recorded % Mortality BAW 50 μg/cm^2 for CC(Cc1ccccc1)OC(=O)Nc1ccc(-c2ncn(-c3ccc(OC(F)(F)F)cc3)n2)cc1 (stereo not drawn)
Data returned: A (50-100)

Data request: Read off the recorded % Mortality BAW 50 μg/cm^2 for O=C(Nc1ccc(-c2ncn(-c3ccc(OC(F)(F)F)cc3)n2)cc1)OCc1ccc(C(F)(F)F)cc1
Data returned: B (Less than 50)
